- PROTOCOL SUMMARY: Cytotoxicity against human WI-38 cells assessed as inhibition of cell growth incubated for 3 days by MTT assay
- Assay type: toxicity, cell-based
So I've got a bunch of molecules here, and I need their IC50 at 3 days values.
Numbers only, in µM.

Some molecules with recorded IC50 at 3 days:
>  <MOLECULE>
COc1cc(-c2nc3ccccc3s2)ccc1OCC(=O)NNC(=O)CN[C@@H](Cc1c[nH]c2ccccc12)C(=O)O

>  <IC50 at 3 days, µM>
60.8

$$$$
>  <MOLECULE>
COc1cc(-c2nc3ccccc3s2)ccc1OCC(=O)NNC(=O)CN[C@@H](Cc1c[nH]cn1)C(=O)O

>  <IC50 at 3 days, µM>
49.5

$$$$
>  <MOLECULE>
CCOC(=O)[C@H](Cc1c[nH]c2ccccc12)NCC(=O)NNC(=O)COc1ccc(-c2nc3ccccc3s2)cc1OC

>  <IC50 at 3 days, µM>
92.7

$$$$
>  <MOLECULE>
CCOC(=O)[C@@H]1CCCN1CC(=O)NNC(=O)COc1ccc(-c2nc3ccccc3s2)cc1OC

>  <IC50 at 3 days, µM>
75.1

$$$$
>  <MOLECULE>
CCOC(=O)[C@H](Cc1c[nH]cn1)NCC(=O)NNC(=O)COc1ccc(-c2nc3ccccc3s2)cc1OC

>  <IC50 at 3 days, µM>
89.4

$$$$

Could you report IC50 at 3 days for every entry in the following list?
1. COc1cc(-c2nc3ccccc3s2)ccc1OCC(=O)NNC(=O)CN1CCC[C@H]1C(=O)O
2. COc1cccc2c1C(=O)c1c(O)c3c(c(O)c1C2=O)C[C@@](O)(C(=O)CO)C[C@@H]3O[C@H]1C[C@H](N)[C@H](O)[C@H](C)O1 [DOXORUBICIN]

# output
[68.6, 79.7]

* * *

- STUDY TARGET: Vascular endothelial growth factor receptor 2 (Homo sapiens, UniProt P35968)
- Sequence (P35968 whole entry): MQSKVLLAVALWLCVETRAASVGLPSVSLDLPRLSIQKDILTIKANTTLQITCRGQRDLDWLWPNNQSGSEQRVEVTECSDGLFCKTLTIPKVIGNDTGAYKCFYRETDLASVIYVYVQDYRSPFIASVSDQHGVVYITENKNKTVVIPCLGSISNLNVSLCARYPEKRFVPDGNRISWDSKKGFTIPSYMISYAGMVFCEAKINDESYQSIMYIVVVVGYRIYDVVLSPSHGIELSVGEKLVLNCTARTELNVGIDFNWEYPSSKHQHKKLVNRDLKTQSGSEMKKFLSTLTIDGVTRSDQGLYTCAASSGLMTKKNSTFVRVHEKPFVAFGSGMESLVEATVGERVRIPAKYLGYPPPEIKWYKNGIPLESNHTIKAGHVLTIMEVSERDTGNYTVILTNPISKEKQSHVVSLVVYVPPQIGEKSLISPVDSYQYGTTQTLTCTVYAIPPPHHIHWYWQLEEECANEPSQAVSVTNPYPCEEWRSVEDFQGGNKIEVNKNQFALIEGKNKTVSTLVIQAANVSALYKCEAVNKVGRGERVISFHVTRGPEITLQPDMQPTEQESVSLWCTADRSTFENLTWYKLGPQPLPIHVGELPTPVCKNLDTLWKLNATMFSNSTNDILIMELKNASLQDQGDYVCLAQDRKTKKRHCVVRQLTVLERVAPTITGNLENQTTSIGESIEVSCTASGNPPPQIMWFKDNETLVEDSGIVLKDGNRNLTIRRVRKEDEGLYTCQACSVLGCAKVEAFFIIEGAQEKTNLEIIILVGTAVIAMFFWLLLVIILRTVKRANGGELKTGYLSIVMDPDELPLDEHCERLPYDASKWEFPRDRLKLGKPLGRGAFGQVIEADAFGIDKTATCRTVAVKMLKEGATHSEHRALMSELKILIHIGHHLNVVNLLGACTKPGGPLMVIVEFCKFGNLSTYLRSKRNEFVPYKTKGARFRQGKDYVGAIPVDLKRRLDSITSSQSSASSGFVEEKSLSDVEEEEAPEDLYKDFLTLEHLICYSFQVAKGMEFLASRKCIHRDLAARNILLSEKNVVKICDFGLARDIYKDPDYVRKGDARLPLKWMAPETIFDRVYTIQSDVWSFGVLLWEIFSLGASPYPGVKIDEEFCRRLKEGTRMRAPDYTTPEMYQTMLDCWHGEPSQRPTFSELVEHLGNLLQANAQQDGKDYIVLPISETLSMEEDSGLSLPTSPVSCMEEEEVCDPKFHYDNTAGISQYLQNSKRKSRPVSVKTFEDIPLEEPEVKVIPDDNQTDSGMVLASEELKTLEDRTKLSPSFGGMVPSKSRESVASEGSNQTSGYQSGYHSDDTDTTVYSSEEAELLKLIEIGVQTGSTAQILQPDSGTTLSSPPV
OBSERVED PROPERTY: IC50 (nM)
Answers are plain numbers, in nM.

>  <SMILES INPUT>
COc1cc(-c2nc3ccccc3s2)ccc1OCC(=O)NNC(=O)CN[C@@H](Cc1c[nH]c2ccccc12)C(=O)O

>  <IC50 (nM)>
162

$$$$
>  <SMILES INPUT>
CCOC(=O)[C@H](Cc1c[nH]c2ccccc12)NCC(=O)NNC(=O)COc1ccc(-c2nc3ccccc3s2)cc1OC

>  <IC50 (nM)>
178

$$$$

Could you report IC50 for every entry in the following list?
1. COc1cc(-c2nc3ccccc3s2)ccc1OCC(=O)NNC(=O)CN[C@@H](Cc1c[nH]cn1)C(=O)O
2. COc1cc(-c2nc3ccccc3s2)ccc1OCC(=O)NNC(=O)CN1CCC[C@H]1C(=O)O

# output
[171, 188]

* * *

- STUDY TARGET: Epidermal growth factor receptor (Homo sapiens)
- Sequence (P00533 whole entry): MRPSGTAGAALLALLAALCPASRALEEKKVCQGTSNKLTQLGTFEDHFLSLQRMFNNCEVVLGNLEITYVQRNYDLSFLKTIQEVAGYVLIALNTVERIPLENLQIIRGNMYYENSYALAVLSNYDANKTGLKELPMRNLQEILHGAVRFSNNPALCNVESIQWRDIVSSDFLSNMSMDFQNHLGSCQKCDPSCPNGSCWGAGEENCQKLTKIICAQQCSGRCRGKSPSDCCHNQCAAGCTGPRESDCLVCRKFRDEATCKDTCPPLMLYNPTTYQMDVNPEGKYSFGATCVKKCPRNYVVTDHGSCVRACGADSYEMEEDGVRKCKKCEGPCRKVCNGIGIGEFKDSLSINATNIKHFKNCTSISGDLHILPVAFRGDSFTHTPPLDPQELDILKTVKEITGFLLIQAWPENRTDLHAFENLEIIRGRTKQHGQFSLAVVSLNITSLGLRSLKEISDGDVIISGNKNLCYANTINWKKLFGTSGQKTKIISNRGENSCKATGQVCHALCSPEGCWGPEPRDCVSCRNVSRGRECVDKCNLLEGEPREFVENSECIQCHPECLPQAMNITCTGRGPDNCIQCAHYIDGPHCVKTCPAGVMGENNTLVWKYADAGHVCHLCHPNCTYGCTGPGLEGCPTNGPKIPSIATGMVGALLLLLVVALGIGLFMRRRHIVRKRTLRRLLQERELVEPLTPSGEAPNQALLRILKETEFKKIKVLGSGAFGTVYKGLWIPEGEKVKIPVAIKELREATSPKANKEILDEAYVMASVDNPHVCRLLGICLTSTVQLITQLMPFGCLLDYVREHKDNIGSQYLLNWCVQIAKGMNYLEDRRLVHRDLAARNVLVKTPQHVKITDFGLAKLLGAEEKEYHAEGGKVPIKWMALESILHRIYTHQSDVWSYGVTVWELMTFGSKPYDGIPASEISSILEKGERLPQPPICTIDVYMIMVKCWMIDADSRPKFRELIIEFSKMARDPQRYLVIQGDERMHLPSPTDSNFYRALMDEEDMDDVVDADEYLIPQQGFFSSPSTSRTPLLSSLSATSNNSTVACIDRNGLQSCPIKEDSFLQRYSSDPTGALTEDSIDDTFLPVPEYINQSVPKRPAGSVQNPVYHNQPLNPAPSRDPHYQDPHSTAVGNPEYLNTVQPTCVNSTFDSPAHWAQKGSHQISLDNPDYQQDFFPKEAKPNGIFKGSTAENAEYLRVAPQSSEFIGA
OBSERVED PROPERTY: pIC50
One number for each entry, as −log10 of the molar value.

# input State the recorded pIC50 for this entry: "COc1cc(-c2nc3ccccc3s2)ccc1OCC(=O)NNC(=O)CN1CCC[C@H]1C(=O)O"
# output 6.47
